Measured values drawn from patent US10745416B2 for this set.

Target: BaF3 EML4-ALK (Homo sapiens)
Construct: The EML4-ALK gene (variant 1) was synthesized at GenScript and cloned into pCDH-CMV-MCS-EF1-Puro plasmid (System Biosciences, Inc); fused on or other part: Q9HC35 (Echinoderm microtubule-associated protein-like 4)
Sequence (Q9UM73 whole entry, change not shown, the tested form may be a part): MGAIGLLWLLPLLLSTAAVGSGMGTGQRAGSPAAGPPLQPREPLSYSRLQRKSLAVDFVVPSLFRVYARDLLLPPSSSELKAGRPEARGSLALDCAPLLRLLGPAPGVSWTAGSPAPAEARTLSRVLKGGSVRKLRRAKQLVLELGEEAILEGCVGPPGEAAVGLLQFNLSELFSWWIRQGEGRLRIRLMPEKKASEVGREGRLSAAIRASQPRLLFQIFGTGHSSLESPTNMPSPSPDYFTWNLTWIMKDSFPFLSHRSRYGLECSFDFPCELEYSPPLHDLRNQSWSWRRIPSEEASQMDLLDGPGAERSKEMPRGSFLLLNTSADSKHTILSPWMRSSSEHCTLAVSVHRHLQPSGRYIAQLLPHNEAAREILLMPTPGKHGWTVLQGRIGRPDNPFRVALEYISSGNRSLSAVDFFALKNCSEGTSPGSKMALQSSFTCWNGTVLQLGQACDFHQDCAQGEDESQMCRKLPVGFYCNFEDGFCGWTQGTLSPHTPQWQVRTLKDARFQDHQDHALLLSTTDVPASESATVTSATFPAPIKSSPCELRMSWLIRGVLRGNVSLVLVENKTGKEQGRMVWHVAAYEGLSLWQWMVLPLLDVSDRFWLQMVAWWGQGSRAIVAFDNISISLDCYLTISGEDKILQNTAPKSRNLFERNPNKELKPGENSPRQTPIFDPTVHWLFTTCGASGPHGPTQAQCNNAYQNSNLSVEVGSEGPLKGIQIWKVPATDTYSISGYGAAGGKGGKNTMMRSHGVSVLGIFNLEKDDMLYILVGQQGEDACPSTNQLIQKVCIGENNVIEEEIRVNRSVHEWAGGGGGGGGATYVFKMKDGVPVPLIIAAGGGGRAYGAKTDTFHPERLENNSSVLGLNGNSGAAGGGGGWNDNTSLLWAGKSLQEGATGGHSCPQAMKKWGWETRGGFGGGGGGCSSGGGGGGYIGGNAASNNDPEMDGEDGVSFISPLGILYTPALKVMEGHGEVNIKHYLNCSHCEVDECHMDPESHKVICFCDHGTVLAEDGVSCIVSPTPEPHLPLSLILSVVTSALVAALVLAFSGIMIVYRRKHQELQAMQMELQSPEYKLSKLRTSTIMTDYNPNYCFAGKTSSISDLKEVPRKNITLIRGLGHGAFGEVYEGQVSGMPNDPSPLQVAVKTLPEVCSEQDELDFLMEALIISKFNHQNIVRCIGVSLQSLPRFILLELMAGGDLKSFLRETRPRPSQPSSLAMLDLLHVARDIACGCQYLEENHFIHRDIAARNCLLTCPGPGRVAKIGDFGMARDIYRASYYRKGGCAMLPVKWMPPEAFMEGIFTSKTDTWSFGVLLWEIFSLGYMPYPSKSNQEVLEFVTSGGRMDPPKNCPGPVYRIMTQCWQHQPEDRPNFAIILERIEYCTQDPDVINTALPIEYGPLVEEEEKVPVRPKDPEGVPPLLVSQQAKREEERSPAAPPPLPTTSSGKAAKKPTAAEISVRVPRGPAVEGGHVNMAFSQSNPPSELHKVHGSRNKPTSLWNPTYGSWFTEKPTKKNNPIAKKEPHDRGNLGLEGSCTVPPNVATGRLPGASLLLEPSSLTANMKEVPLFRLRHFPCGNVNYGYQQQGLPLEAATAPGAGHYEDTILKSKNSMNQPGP
Test: Cell proliferation assay (CellTiter-Glo, 72 hours)
Type: cell-based
Conditions: anti-cell proliferation
Procedure: The EML4-ALK gene (variant 1) was synthesized at GenScript and cloned into pCDH-CMV-MCS-EF1-Puro plasmid (System Biosciences, Inc). Ba/F3-EML4-ALK wild type were generated by transducing Ba/F3 cells with lentivirus containing EML4-ALK wide type. Stable cell lines were selected by puromycin treatment, followed by IL-3 withdrawal. Briefly, 5×10^6 Ba/F3 cells were transduced with lentivirus supernatant in the presence of 8 μg/mL protamine sulfate. […]
assay_metric: GI50 (µM)

Worked cases, answers included:
Q: Can you share its GI50? I mean this compound: C[C@@H]1COc2c(F)cc(F)cc2CN2c3nc4c(cnn4cc3O[C@H]3CCC[C@H]32)C(=O)N1
A: 0.675

Q: Lookup O=C1NC[C@H](O)COc2ncc(F)cc2CN2c3nc4c1cnn4cc3O[C@H]1CCC[C@H]12
A: 1.06

Q: Lookup CC1CNC(=O)c2cnn3cc4c(nc23)N(Cc2cc(F)cnc2OC1)[C@@H]1CCC[C@@H]1O4 (some centres unmarked)
A: 0.901

(a) O=C1N[C@@H]2CCC[C@@H]2Oc2ncc(F)cc2CN2c3nc4c1cnn4cc3O[C@H]1CCC[C@H]12
(b) CC1(C)CCOc2ncc(F)cc2CN2c3nc4c(cnn4cc3O[C@H]3CCC[C@H]32)C(=O)N1
Q: Determine, for a and b , which has the greater value of GI50. # reply format: chosen label
A: b
(b: 1 µM, a: 0.469 µM)
